- TARGET OR SYSTEM: human μ-opiate receptor (Homo sapiens)
- Sequence (P35372 whole entry): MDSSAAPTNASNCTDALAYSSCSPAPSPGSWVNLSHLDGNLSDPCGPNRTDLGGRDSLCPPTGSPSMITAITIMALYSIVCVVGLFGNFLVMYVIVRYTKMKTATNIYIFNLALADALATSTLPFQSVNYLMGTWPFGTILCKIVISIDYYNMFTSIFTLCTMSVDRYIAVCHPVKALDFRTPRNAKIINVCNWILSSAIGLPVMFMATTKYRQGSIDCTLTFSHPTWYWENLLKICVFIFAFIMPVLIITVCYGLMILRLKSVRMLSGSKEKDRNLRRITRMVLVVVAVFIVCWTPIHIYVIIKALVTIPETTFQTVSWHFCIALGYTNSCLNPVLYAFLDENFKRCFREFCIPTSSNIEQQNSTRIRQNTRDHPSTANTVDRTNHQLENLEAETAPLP
- ASSAY NOTES: Affinity for the human μ-opiate receptor ([3H]-naloxone displacement, SPA, CHO-K1 membrane preparation)
- Assay type: binding
- TEST CONDITIONS: read-out: μ-Opioid receptor, % inhibition [1 μM]
Structures can show the parent of a compound that is named as a salt.
REPORTED ENDPOINT: inhibition at 1 µM (%)

• CCC(CC)C(=O)N(c1ccccc1)C1CCC(C(c2ccccc2)N(C)C)CC1 (centres unmarked) [compound 105, hydrochloride] = 100
• COc1cccc(C(=O)NCC2CCC(C(c3ccc(Cl)cc3)N(C)C)CC2)c1 (centres unmarked) = 80
• CN(C)C(c1ccc(F)cc1)C1CCC(CNC(=O)Cc2cccs2)CC1 (centres unmarked) = 86
• CN(C)C(CCc1ccccc1)C1CCC(NC(=O)c2ccc(F)cc2)CC1 (centres unmarked) = 79
• CN(C)C(c1ccc(F)cc1)C1CCC(NC(=O)c2ccc(F)cc2)CC1 (centres unmarked) = 78

---

In this section we review reported inhibition at 10 µM values for a set of compounds.
- TARGET OR SYSTEM: Serotonin (5HT) reuptake (Rattus norvegicus)
- Construct: synaptosomes are freshly isolated from areas of rat brain; from tissue; host or cells: rat brain synaptosomes (P2 fraction)
- Sequence (P31652 whole entry): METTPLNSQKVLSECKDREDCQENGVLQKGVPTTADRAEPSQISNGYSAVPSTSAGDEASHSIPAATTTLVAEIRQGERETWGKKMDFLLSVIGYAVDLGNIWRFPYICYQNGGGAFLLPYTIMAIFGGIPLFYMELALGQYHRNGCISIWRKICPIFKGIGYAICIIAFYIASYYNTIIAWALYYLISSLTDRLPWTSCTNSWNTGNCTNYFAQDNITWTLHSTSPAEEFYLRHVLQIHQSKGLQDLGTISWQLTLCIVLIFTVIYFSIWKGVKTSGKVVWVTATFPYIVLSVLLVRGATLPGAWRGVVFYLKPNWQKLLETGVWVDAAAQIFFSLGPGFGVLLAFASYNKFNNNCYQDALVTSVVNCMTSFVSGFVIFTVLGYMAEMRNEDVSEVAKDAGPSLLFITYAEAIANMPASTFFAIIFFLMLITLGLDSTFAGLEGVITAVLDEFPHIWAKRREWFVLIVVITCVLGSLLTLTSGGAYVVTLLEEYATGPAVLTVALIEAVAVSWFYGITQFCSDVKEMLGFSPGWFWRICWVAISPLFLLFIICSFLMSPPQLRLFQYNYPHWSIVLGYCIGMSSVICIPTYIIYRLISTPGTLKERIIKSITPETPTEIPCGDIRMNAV
- ASSAY NOTES: Serotonin (5HT) reuptake inhibition in rat brain synaptosomes (P2 fraction)
- Format: biochemical
- TEST CONDITIONS: read-out: Serotonin reuptake, % inhibition [10 μM]
Counter-ions that a name gives are not always drawn.
REPORTED ENDPOINT: inhibition at 10 µM

- CN(C)C(c1ccc(F)cc1)C1CCC(CCCO)CC1 (stereo not drawn): 89%
- CCC(=O)N(CCCCc1ccccc1)C1CCC(C(c2ccccc2)N(C)C)CC1 (stereo not drawn) [compound 97, hydrochloride]: 76%
- CN(C)C(c1ccc(F)cc1)C1CCC(CN)CC1 (stereo not drawn): 95%
- CN(C)C(c1ccc(F)cc1)C1CCC(CCO)CC1 (stereo not drawn): 84%
- CN(C)C(c1ccccc1)C1CCC(CN)CC1 (stereo not drawn): 89%
- CN(C)C(c1ccccc1)C1CCC(NCc2ccccc2)CC1 (stereo not drawn) [compound 86, hydrochloride]: 88%
- CN(C)C(c1ccccc1)C1CCC(NC(=O)Nc2cccc(C(F)(F)F)c2)CC1 (stereo not drawn) [compound 75, hydrochloride]: 80%
- CN(C)C(c1ccc(Cl)cc1)C1CCC(CO)CC1 (stereo not drawn): 79%
- COc1ccc(NC(=O)C=C2CCC(C(c3ccc(C)cc3)N3CCCCC3)CC2)cc1 (stereo not drawn): 38%
- CN(C)C(c1ccccc1)C1CCC(NS(=O)(=O)c2ccc(C(C)(C)C)cc2)CC1 (stereo not drawn) [compound 108, hydrochloride]: 75%
- CN(C)C(c1ccc(Cl)cc1)C1CCC(O)CC1 (stereo not drawn): 64%
- CN(C)C(c1ccccc1)C1CCC(OCc2ccccc2)CC1 (stereo not drawn) [compound 144, hydrochloride]: 80%

---

- TARGET OR SYSTEM: human μ-opiate receptor (Homo sapiens)
- ASSAY NOTES: Affinity for the human μ-opiate receptor ([3H]-naloxone displacement, SPA, CHO-K1 membrane preparation)
- Format: binding
- TEST CONDITIONS: read-out: μ-Opioid receptor, % inhibition [1 μM]
Counter-ions that a name gives are not always drawn.
REPORTED ENDPOINT: inhibition at 1 µM (%)

* CN(C)C(c1ccccc1)C1CCC(CNC(=O)c2cncc(Br)c2)CC1 (stereo not drawn) | 82
* COc1cccc(CC(=O)NCC2CCC(C(c3ccc(Cl)cc3)N(C)C)CC2)c1 (stereo not drawn) | 95
* CN(C)C(c1ccccc1)C1CCC(CNC(=O)c2cccc(Br)c2)CC1 (stereo not drawn) | 86
* Cc1cc(C(=O)NC2CCC(C(c3ccccc3)N(C)C)CC2)no1 (stereo not drawn) | 73
* CN(C)C(c1ccccc1)C1CCC(NC(=O)CC(C)(C)C)CC1 (single isomer, unassigned) | 87
* Cc1ccccc1C(=O)NCC1CCC(C(c2cccc(F)c2)N(C)C)CC1 (stereo not drawn) | 82
* CN(C)C(c1ccccc1)C1CCC(CNC(=O)Cc2ccccc2)CC1 (stereo not drawn) | 98
* CN(C)C(c1cccs1)C1CCC(NC(=O)c2cncc(Br)c2)CC1 (stereo not drawn) | 87
* CN(C)C(c1ccc(Cl)cc1)C1CCC(CNC(=O)Cc2cccs2)CC1 (stereo not drawn) | 96
* CN(C)C(c1cccc(F)c1)C1CCC(NC(=O)c2cc3ccccc3s2)CC1 (stereo not drawn) | 86
* Cc1ccccc1C(=O)NCCC1CCC(C(c2ccc(Cl)cc2)N(C)C)CC1 (stereo not drawn) | 86
* CN(C)C(c1ccc(Cl)cc1)C1CCC(CCNC(=O)c2ccccc2Cl)CC1 (stereo not drawn) | 81
* CN(C)C(c1cccs1)C1CCC(NC(=O)Cc2ccc(Cl)cc2)CC1 (stereo not drawn) | 89
* CN(C)C(c1ccc(Cl)cc1)C1CCC(CNC(=O)c2cccc(C(F)(F)F)c2)CC1 (stereo not drawn) | 84
* CN(C)C(c1ccccc1)C1CCC(CCNC(=O)c2cccc(C#N)c2)CC1 (stereo not drawn) | 96
* CN(C)C(CCc1ccccc1)C1CCC(NC(=O)c2cccc(Br)c2)CC1 (stereo not drawn) | 74
* COc1ccc(N(C(C)=O)C2CCC(C(c3ccccc3)N(C)C)CC2)cc1 (stereo not drawn) [compound 99, hydrochloride] | 77
* CN(C)C(c1ccccc1)C1CCC(CCNC(=O)c2ccc(F)cc2)CC1 (stereo not drawn) | 87
* CN(C)C(c1cccc(F)c1)C1CCC(NC(=O)Cc2ccc(Cl)cc2)CC1 (stereo not drawn) | 74
* COc1cccc(OC)c1C(=O)NCC1CCC(C(c2cccs2)N(C)C)CC1 (stereo not drawn) | 99
* CN(C)C(c1ccccc1)C1CCC(NC(=O)C2(c3ccc(Cl)cc3)CCCC2)CC1 (stereo not drawn) | 101
* Cc1ccc(Oc2ncccc2C(=O)NCC2CCC(C(c3ccc(Cl)cc3)N(C)C)CC2)cc1 (stereo not drawn) | 83
* COc1cccc(C(=O)NC2CCC(C(c3cccs3)N(C)C)CC2)c1 (stereo not drawn) | 94
* CCC(=O)N(CCCCc1ccccc1)C1CCC(C(c2ccccc2)N(C)C)CC1 (stereo not drawn) [compound 97, hydrochloride] | 97
* COc1cccc(CC(=O)NCCC2CCC(C(c3cccs3)N(C)C)CC2)c1 (stereo not drawn) | 87
* CC(=O)N(CCc1c[nH]c2ccccc12)C1CCC(C(c2ccccc2)N(C)C)CC1 (stereo not drawn) | 95
* CN(C)C(c1ccccc1)C1CCC(NC(=O)C2CCCC2)CC1 (stereo not drawn) | 70
